# ASSAY PROTOCOL: Terminal half life in Sprague-Dawley rat at 1 mg/kg, iv
# Assay type: ADME, organism-based
# CONDITION SET: in vivo, read-out: beta t1/2 (converted)
MEASURED PARAMETER: half-life (h)
Answers are plain numbers, in h.

input: // lookup half-life for C[C@@H](O[C@H]1CC[C@]2(CCC(F)(F)CO2)CC1)c1nc(-c2cc(F)c(CS(C)(=O)=O)c(F)c2)no1
output: 5.1

* * *

Give remaining at 1 h, 5 µM for every item shown.
# ASSAY PROTOCOL: Stability in rat liver microsomes assessed as parent compound remaining at 5 uM measured after 1 hr
# Format: ADME, Microsome
# CONDITION SET: read-out: Stability
Give bare numbers, in %.

C[C@@H](O[C@H]1CC[C@@]2(CC1)CC(F)(F)CCO2)c1nc(-c2cc(F)c(CS(C)(=O)=O)c(F)c2)no1: 91
CC(O[C@H]1CC[C@]2(CCC(C)(C)CO2)CC1)c1nc(-c2ccc(CS(C)(=O)=O)c(F)c2)no1 (stereo not given in full): 56
CC(O[C@H]1CC[C@]2(CCCCO2)CC1)c1nc(-c2ccc(CS(C)(=O)=O)c(F)c2)no1 (stereo not given in full): 64
CC(O[C@H]1CC[C@@]2(CC1)CC(C)(C)CCO2)c1nc(-c2ccc(CS(C)(=O)=O)c(F)c2)no1 (stereo not given in full): 53
CC(O[C@H]1CC[C@@]2(CC1)CC(C)(C)CO2)c1nc(-c2ccc(CS(C)(=O)=O)c(F)c2)no1 (stereo not given in full): 55
CC(O[C@H]1CC[C@]2(CC1)COC(C)(C)C2)c1nc(-c2ccc(CS(C)(=O)=O)c(F)c2)no1 (mixture of isomers): 86
CC(O[C@H]1CC[C@]2(CCCO2)CC1)c1nc(-c2ccc(CS(C)(=O)=O)c(F)c2)no1 (stereo not given in full): 54
C[C@@H](O[C@H]1CC[C@]2(CC1)COC(C)(C)C2)c1nc(-c2cc(F)c(CS(C)(=O)=O)c(F)c2)no1: 83
C[C@@H](O[C@H]1CC[C@]2(CCC(F)(F)CO2)CC1)c1nc(-c2cc(F)c(CS(C)(=O)=O)c(F)c2)no1: 98

Switching to the query record.
input: Given the entry C[C@@H](O[C@H]1CC[C@@]2(CC1)CC(F)(F)CO2)c1nc(-c2cc(F)c(CS(C)(=O)=O)c(F)c2)no1 , report its measured remaining at 1 h, 5 µM.
output: 85
